Tested on: Caco-2
Test: cell viability relative to DMSO; higher = less toxic
Conditions: 72 h; 1 nM

>  <COMPOUND>
CC(C)[C@@H]1CC[C@@H](C)C[C@@H]1P(=O)(c1ccccc1)c1ccccc1 [DPO-1]

>  <cell viability (%)>
100

$$$$
>  <COMPOUND>
CC(C)C[C@H](NC(=O)[C@H](CCc1ccccc1)NC(=O)CN1CCOCC1)C(=O)N[C@@H](Cc1ccccc1)C(=O)N[C@@H](CC(C)C)C(=O)[C@@]1(C)CO1 [carfilzomib]

>  <cell viability (%)>
91.9

$$$$
>  <COMPOUND>
CCOC(=O)CCNc1cc(N2CCc3ccccc3CC2)nc(-c2ccccn2)n1 [GSK-J4]

>  <cell viability (%)>
93.2

$$$$
>  <COMPOUND>
C[C@H]1NCc2cc(-c3ccc4c(=O)c(C(=O)O)cn(C5CC5)c4c3OC(F)F)ccc21 [garenoxacin]

>  <cell viability (%)>
96.1

$$$$
>  <COMPOUND>
C[C@]12C[C@H](O)[C@H]3[C@@H](CCC4=CC(=O)CC[C@@]43C)[C@@H]1CC[C@@H]2C(=O)CO [corticosterone]

>  <cell viability (%)>
92.8

$$$$
>  <COMPOUND>
Cc1ccc(-c2ncc(Cl)cc2-c2ccc(S(C)(=O)=O)cc2)cn1 [etoricoxib]

>  <cell viability (%)>
95.3

$$$$
>  <COMPOUND>
CCN(CC)CCOC(=O)C(c1ccccc1)c1ccccc1 [adiphenine]

>  <cell viability (%)>
105

$$$$
>  <COMPOUND>
Oc1cccc(-c2nc(N3CCOCC3)c3oc4ncccc4c3n2)c1 [PI-103]

>  <cell viability (%)>
100

$$$$
>  <COMPOUND>
CC[C@]12CCCN3CCc4c(n(c5ccccc45)C(=O)C1)[C@@H]32 [vinburnine]

>  <cell viability (%)>
94.4

$$$$
>  <COMPOUND>
NC(=O)NC(=O)Cc1ccccc1 [phenacemide]

>  <cell viability (%)>
102

$$$$
>  <COMPOUND>
CN(C)CCCC(=O)Nc1ccc(C(=O)Nc2cccc(Nc3ncc(Cl)c(-c4c[nH]c5ccccc45)n3)c2)cc1 [THZ1-R]

>  <cell viability (%)>
92.2

$$$$
>  <COMPOUND>
N[C@@H](CCNCc1ccc(Cl)cc1)C(=O)N1CCCCC1

>  <cell viability (%)>
95.9

$$$$
>  <COMPOUND>
Cc1oc(-c2ccccc2)nc1CCOc1ccc(CC2SC(=O)NC2=O)c2sccc12 (configuration not stated) [edaglitazone]

>  <cell viability (%)>
104

$$$$
>  <COMPOUND>
CCN(CC)CCOc1ccc(Nc2ncc3cc(-c4c(Cl)cccc4Cl)c(=O)n(C)c3n2)cc1

>  <cell viability (%)>
102

$$$$
>  <COMPOUND>
CN1CCCN(C(c2ccccc2)c2ccc(Cl)cc2)CC1 (configuration not stated) [homochlorcyclizine]

>  <cell viability (%)>
97.5

$$$$
>  <COMPOUND>
COc1cc2c(cc1OC(C)C)[C@H](c1ccc(Cl)cc1)N(c1ccc(N(C)C[C@H]3CC[C@H](N4CCN(C)C(=O)C4)CC3)cc1)C(=O)C2 [CGM097]

>  <cell viability (%)>
96.6

$$$$
>  <COMPOUND>
Cc1nc2ccccn2c(=O)c1CCN1CCC(C(=O)c2ccc(F)cc2)CC1 [pirenperone]

>  <cell viability (%)>
103

$$$$
